Test system: RPMI-8226 leukemia
experiment: NCI tumour cell line growth inhibition, 48 h; in the data active = GI50 below about 0.43 µM; inactive = the rest
Labels: t (active), f (inactive)

>  <compound>
CCCCCCCCO/N=C\c1c2c(O)c3c(O)c(C)c4c(c3c1O)C(=O)C(C)(O/C=C\C(OC)C(C)C(OC(C)=O)C(C)C(O)C(C)C(O)C(C)/C=C\C=C(\C)C(=O)N2)O4 (stereo unspecified)

>  <category>
f

$$$$
>  <compound>
COc1cc(N)ccc1Nc1c2ccccc2nc2ccccc12

>  <category>
f

$$$$
>  <compound>
CO[C@H]1C[C@@H]2CC[C@@H](C)[C@@](O)(O2)C(=O)C(=O)N2CCCC[C@H]2C(=O)O[C@H]([C@H](C)C[C@@H]2CC[C@@H](OC(=O)C(C)(CO)CO)[C@H](OC)C2)CC(=O)[C@H](C)/C=C(\C)[C@@H](O)[C@@H](OC)C(=O)[C@H](C)C[C@H](C)/C=C/C=C/C=C/1C

>  <category>
t

$$$$
>  <compound>
CC1=C([Se]CC(OC(=O)[C@@H](CSSC(C)(C)C)NC(=O)C(C)(C)C)C(=O)NCCCCCC(=O)OCc2ccccc2)C(=O)c2ccccc2C1=O (stereo partly specified)

>  <category>
f

$$$$
>  <compound>
CCC(=O)Nc1ccc2c(c1)CN1C(=O)c3ccccc3C1=N2

>  <category>
f

$$$$
>  <compound>
CCSc1nc(=S)[nH]c2[nH]ncc12

>  <category>
f

$$$$
>  <compound>
Cc1cc(S(=O)(=O)/N=C(\N)n2nc(C)c(C)c2C)c(SCc2ccccc2)cc1Cl

>  <category>
f

$$$$
>  <compound>
O=c1[nH]cnc2c1nnn2[C@@H]1O[C@H](CO)[C@@H](O)[C@H]1O

>  <category>
f

$$$$
>  <compound>
CCC[C@H](Nc1nc(-c2ccc(NC(=O)NCC)c(OC)c2)ncc1C)c1cccnc1

>  <category>
t

$$$$
>  <compound>
CCOC(=O)c1ccc2[nH]c(Cc3[nH]c4ccc(C(=O)OCC)cc4c3C)c(C)c2c1

>  <category>
f

$$$$
>  <compound>
CCN(CC)CCCC(C)N/C(c1cccc(OC)c1)=c1\c(=O)[nH]n(-c2c3ccccc3nc3ccccc23)c(=O)\c1=C(/NC(C)CCCN(CC)CC)c1cccc(OC)c1 (stereo unspecified)

>  <category>
f

$$$$
>  <compound>
C[C@@H](Oc1cc(-c2cnn(C3CC4(CCNCC4)C3)c2)cnc1N)c1c(F)ccc(Cl)c1Cl

>  <category>
f

$$$$
>  <compound>
O=C(/C=C/C12c3ccccc3C(c3ccccc31)C1C(=O)NC(=O)C12)c1ccco1 (stereo unspecified)

>  <category>
f

$$$$
>  <compound>
N#Cc1c(SCc2ccccc2)nc2[nH]c(=S)[nH]c(=S)c2c1-c1ccco1

>  <category>
f

$$$$
>  <compound>
CCOC(=O)c1ccc(C(O)CC(=O)OC(C)(C)C)[nH]1 (stereo unspecified)

>  <category>
f

$$$$
>  <compound>
Cc1cc(Nc2ncc(Cl)c(Nc3ccccc3S(=O)(=O)C(C)C)n2)c(OC(C)C)cc1C1CCNCC1

>  <category>
f

$$$$

----------
Form field: TGI (one value per entry).
Tested on: SF-295 CNS
experiment: NCI tumour cell line growth inhibition, 48 h

>  <compound>
CCCCCCCCO/N=C\c1c2c(O)c3c(O)c(C)c4c(c3c1O)C(=O)C(C)(O/C=C\C(OC)C(C)C(OC(C)=O)C(C)C(O)C(C)C(O)C(C)/C=C\C=C(\C)C(=O)N2)O4 (stereo not drawn)

>  <comparison_operator>
=

>  <TGI (µM)>
2.56

$$$$
>  <compound>
CCOC(=O)CCc1c(C)c2ccc(O)cc2oc1=O

>  <comparison_operator>
>

>  <TGI (µM)>
100

$$$$
>  <compound>
CCC/C(Cl)=N\OC(=O)Nc1ccc(Br)cc1

>  <comparison_operator>
=

>  <TGI (µM)>
30.2

$$$$
